- System: D-aminoacylase derived from Sebekia benihana IFO14309
- Assay type: biochemical
- experimental_parameters: metal salt 10 mM
outcome_measure: D-Met (mM)
One number for each entry, in mM.

Example molecules with recorded D-Met:
compound_structure_string	endpoint_unit	recorded_number
[Cl-].[Cl-].[Zn+2]	mM	0
[Cl][Fe][Cl]	mM	0.035
[Cl-].[Cl-].[Co+2]	mM	0.11
[Cl][Hg][Cl]	mM	0
[Cl][Cu][Cl]	mM	0

Look at each molecule and report its D-Met.
1. [Ba+2].[Cl-].[Cl-]
2. [Cl-].[K+]
3. [Cl][Ni][Cl]
4. [Cl-].[Cl-].[Mg+2]
5. [Ca+2].[Cl-].[Cl-]
6. [Cl][Mn][Cl]

Response given:
1.1
1.1
0.035
1.2
1.1
0.73
